test system: L-1210 mouse leukemia cells; assay: Activation of macrophages (growth inhibition of tumor cells by intraperitoneal macrophages of treated mice, MTT assay); format: cell-based; conditions: macrophages taken 3 days after i.p. 0.2 ml of 500 μg/ml, macrophage:L-1210 20:1, 72 hours
property-measured: Growth inhibitory ratio of L-1210 mouse leukemia cells (%)
// units = %; emit number, no label

State the recorded Growth inhibitory ratio of L-1210 mouse leukemia cells for this entry: CCCCCCCCCCCCCC(=O)O[C@H](CCCCCCCCCCC)CC(=O)S[C@@H]1O[C@H](CO)[C@@H](O)[C@H](O[C@H](C)C(=O)N[C@@H](C)C(=O)N[C@H](CCC(=O)OC)C(N)=O)[C@H]1NC(C)=O 45.2

And what about the compound CCCCCCCCCCCCCCCCCC(=O)OC[C@H]1O[C@H](OC(=O)C(CCCCCCCCCCCCCC)CCCCCCCCCCCCCC)[C@H](NC(C)=O)[C@@H](O[C@H](C)C(=O)N[C@@H](C)C(=O)N[C@H](CCC(=O)OC)C(N)=O)[C@@H]1O ? 90.2

And what about the compound CCCCCCCCCCCCCCCCCC(=O)OC[C@H]1O[C@@H](SC(=O)C(CCCCCCCCCCCCCC)CCCCCCCCCCCCCC)[C@H](NC(C)=O)[C@@H](O[C@H](C)C(=O)N[C@@H](C)C(=O)N[C@H](CCC(=O)OC)C(N)=O)[C@@H]1O ? 76.6

And what about the compound CCCCCCCCCCCCCCC(CCCCCCCCCCCCCC)C(=O)S[C@@H]1O[C@H](COC(=O)CCCCCCCCCCCCC)[C@@H](O)[C@H](O[C@H](C)C(=O)N[C@@H](C)C(=O)N[C@H](CCC(=O)OC)C(N)=O)[C@H]1NC(C)=O ? 58.5
